Ref: patent US20260216242A1

Biological target: T1, Human ALPP (leucine zipper) (human)
T1 construct: Whole entry: ALPP fused with a cysteine stabilised leucine zipper and His tag; also called hALPP
T1 chain: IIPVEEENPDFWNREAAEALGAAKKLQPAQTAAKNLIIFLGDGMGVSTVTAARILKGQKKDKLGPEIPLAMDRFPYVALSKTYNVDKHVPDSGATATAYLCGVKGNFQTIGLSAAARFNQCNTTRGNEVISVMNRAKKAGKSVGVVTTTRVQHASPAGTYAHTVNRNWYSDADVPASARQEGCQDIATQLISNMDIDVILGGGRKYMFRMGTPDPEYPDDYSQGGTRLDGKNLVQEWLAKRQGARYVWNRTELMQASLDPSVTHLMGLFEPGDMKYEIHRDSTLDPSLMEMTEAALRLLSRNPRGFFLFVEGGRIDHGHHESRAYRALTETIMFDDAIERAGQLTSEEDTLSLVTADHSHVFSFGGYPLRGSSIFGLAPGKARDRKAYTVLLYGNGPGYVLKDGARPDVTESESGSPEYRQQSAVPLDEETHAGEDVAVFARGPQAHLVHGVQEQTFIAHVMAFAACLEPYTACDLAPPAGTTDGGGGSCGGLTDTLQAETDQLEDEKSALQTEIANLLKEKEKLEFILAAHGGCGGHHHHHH
Experiment: BLI, antigen immobilised
koff by entry:

1. D10 His (VHH, not shown: small tags and cut ends) VHH: QVQLVESGGGLVQPGGSLRLSCAASGSIFSVNTMGWYRQAPGKQRDLVAVATSGGTIHYADSVKGRFTISRDNAKNTVYLQMNSLKPEDTAVYYCNLVVPYGMIAGDHDYWGQGTKVTVSS
1.3e-05 s⁻¹
2. D04 His (VHH, not shown: small tags and cut ends) VHH: QVQLVESGGGLVQPGGSLRLSCAASESTFSINVMGWYRQAPGKQRELVATITSGDITNYADSVKGRFTISRDNAENTVYLRTNSLKPEDTAVYYCNARGEYHSGNEYDYWGQGTQVTVSS
< 1e-07 s⁻¹

Consider now this further binder.
# koff lookup, item F08 His (VHH, not shown: small tags and cut ends, also called #269) VHH: QVQLVESGGGSVQAGGSLRLSCAASGPSLSNYAMGWFRQAPGKEREFVAGISWGGGRTSYTDSVKGRFTISRDNAKNTVYLQMNNLKPEDTGVYYCAGRYGRGRNVEYEYDYWGQGTQVTVSS
< 1e-07 s⁻¹
